Target: Serotonin 3 (5-HT3) receptor (Rattus norvegicus, UniProt P35563+Q9JJ16)
Sequence (P35563 whole entry): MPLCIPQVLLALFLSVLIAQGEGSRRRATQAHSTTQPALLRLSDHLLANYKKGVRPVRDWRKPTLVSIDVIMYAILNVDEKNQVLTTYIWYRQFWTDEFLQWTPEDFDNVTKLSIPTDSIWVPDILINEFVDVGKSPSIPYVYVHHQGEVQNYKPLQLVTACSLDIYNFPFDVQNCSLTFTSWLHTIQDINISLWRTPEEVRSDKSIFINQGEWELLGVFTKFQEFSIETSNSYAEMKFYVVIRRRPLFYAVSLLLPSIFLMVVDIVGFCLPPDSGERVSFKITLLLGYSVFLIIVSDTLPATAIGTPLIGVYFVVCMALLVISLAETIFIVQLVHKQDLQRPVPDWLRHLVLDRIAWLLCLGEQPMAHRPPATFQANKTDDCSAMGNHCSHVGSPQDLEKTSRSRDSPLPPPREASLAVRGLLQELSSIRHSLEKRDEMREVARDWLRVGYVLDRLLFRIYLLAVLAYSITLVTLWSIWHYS
Sequence (Q9JJ16 whole entry): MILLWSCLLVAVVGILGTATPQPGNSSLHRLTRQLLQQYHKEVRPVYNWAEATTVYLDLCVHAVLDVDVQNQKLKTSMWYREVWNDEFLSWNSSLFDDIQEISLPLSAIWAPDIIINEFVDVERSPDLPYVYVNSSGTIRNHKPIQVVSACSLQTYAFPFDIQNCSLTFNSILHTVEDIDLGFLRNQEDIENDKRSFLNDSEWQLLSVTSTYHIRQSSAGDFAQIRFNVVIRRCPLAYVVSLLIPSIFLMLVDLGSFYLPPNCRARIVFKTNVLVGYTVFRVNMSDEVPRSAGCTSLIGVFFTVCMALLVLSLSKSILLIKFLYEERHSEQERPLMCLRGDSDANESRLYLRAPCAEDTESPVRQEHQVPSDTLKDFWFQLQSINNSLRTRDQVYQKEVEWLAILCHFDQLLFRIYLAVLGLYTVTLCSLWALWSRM
Experiment: Displacement of [3H]Q-ICS-205-930 from 5-hydroxytryptamine 3 receptor recognition sites in rat brain membranes
Type: cell membranes
metric: pIC50
# pIC50: negative log10 of molar concentration; output just the value

{"compound": "Cn1cc(C2=NCC3(C[N+]4(C)CCC3CC4)O2)c2ccccc21 (single isomer, unassigned; 22o)", "numericResult": 7.99}

Report value only: pIC50, Serotonin 3 (5-HT3) receptor (Rattus norvegicus, UniProt P35563+Q9JJ16), Cn1cc(C2=NC[C@]3(C[N@@]4CC[C@@H]3C4)O2)c2ccccc21
8.51

Report value only: pIC50, Serotonin 3 (5-HT3) receptor (Rattus norvegicus, UniProt P35563+Q9JJ16), Cn1cc(C2=NC[C@]3(CN4CCC3CC4)O2)c2ccccc21
8.54

Report value only: pIC50, Serotonin 3 (5-HT3) receptor (Rattus norvegicus, UniProt P35563+Q9JJ16), CC(=O)c1c(C2=NCC3(CN4CCC3CC4)O2)c2ccccc2n1C (configuration not stated)
8.19

Where do these numbers come from? They come from ChEMBL document CHEMBL1126265.
